Value source: paper PMC10063609

- SUBJECT OF TEST: interaction between cTnC and switch peptide of cTnI (cTnISP) (Homo sapiens)
- METHOD: Fluorescence polarization HTS and dose-response, cTnC/FAM-cTnISP
- Assay type: binding
- TEST CONTEXT: cTnISP primary screen, TOCRIScreen library, single concentration 50 μmol/L
PROPERTY NAME: FP (mP)
Use mP as the unit, but write only the number.

# input Look up FP (mP) for this compound: CCc1ccc(OCc2ccccc2C(=O)Nc2ccc3nc(C)cc(N)c3c2)cc1
# output 84.3

# input What value of FP (mP) has been recorded for this entry: Nc1ncnc2c1c(-c1cccc(OCc3ccccc3)c1)cn2C1CC(CN2CCCC2)C1 (stereo not shown)
# output 68.4

# input Look up FP (mP): O=C(Nc1cccc(C(F)(F)F)c1)Nc1ccc(Br)cc1-c1nn[nH]n1
# output 121.6

# input Given CCCNc1ccc2ncc(-c3ccc4[nH]ncc4c3)n2n1.O=C(O)C(F)(F)F [CHR 6494 trifluoroacetate] , state its recorded FP (mP).
# output 81.9

# input # lookup: FP (mP) of O=C(c1ccc(Nc2nccc(-c3cc4ccccc4s3)n2)cc1)N1CCC(N2CCCC2)CC1
# output 82

# input Requested field: FP (mP). Item: O[C@@H](CN1CCNCC1)Cn1c2ccc(Br)cc2c2cc(Br)ccc21
# output 77.1

# input Reported FP (mP), compound c1ccc(Cn2c(-c3ccc(OC[C@H](C4CCNCC4)n4c(-c5ccccc5)nc5ccccc54)cc3)nc3ccccc32)cc1 : ____
# output 87.7

# input Value lookup for FP (mP); key = Cc1cc(CN2CCN(c3c(Br)cnc4nc(-c5ccc(N6CCN(C)CC6)cc5)[nH]c34)CC2)no1
# output 83.6

# input I'd like to know its FP (mP). The compound in question is O=C(Nc1cc(C(F)(F)F)cc(C(F)(F)F)c1)c1cnc(Cl)nc1C(F)(F)F
# output 70.3

# input Any idea what FP (mP) was measured for CC(C)c1cnn2c(NCc3ccccc3)cc(NCCCCCCN)nc12.Cl.Cl [BS 181 dihydrochloride] ?
# output 73.2

# input Suppose we examine the compound Cc1cccc(C)c1-n1c(=O)c2cnc(Nc3ccc(N4CCN(C)CC4)cc3)nc2n2c3ccccc3nc12 ; what FP (mP) value has been reported?
# output 73.5

# input Which FP (mP) value belongs to Cc1c(NC(=O)OC[C@@H]2COCCN2)cn2ncnc(Nc3ccc4c(cnn4Cc4cccc(F)c4)c3)c12.Cl.Cl [BMS 599626 dihydrochloride] ?
# output 88.2

# input FP (mP) lookup needed for CCCCCCCCNC(=O)/C(C#N)=C/c1cn(CCCN(C)C)c2ccccc12 , thanks.
# output 64.1

# input What does the record list as FP (mP) for CN1CCN(c2ccc(/C=C(\C#N)c3ccccc3Br)cc2)CC1.Cl.Cl [DG 172 dihydrochloride] ?
# output 81

# input I have this compound here, CCN1CCN(Cc2ccc(-c3cc4c(N[C@H](C)c5ccccc5)ncnc4[nH]3)cc2)CC1 , and I need its recorded FP (mP).
# output 77.8

# input Using the record for CCOc1cc(C(=O)N2CCC(N3CCN(C)CC3)CC2)ccc1Nc1ncc2c(n1)N(C1CCCC1)c1ccccc1C(=O)N2C , report its FP (mP).
# output 64.9
